system: A549 cells; test: In vitro cell killing (cell proliferation assay, Cell Titer-Glo) on FolRα negative A549 cells; type: cell-based; conditions: Homo sapiens, A549, 120 h
assay.endpoint: pEC50
Please report pEC50 as the negative decimal logarithm of the molar concentration, giving only the number.

## Input Param item = CC[C@@]1(O)C(=O)OCc2c1cc1n(c2=O)Cc2c-1nc1cc(F)c(C)c3c1c2[C@@H](N)CC3 [Compound 207, Exatecan] ; retrieve measured pEC50.
## Output 8.47

---

test system: MC38-hFolRα cells; assay: In vitro cell killing (cell proliferation assay, Cell Titer-Glo) on MC38-hFolRα cells; format: cell-based; details: 72 h
assay.endpoint: EC50 (nM)
Give the value in nM but do not write nM after it.

## Input Param item = CC[C@@]1(O)C(=O)OCc2c1cc1n(c2=O)Cc2c-1nc1cc(F)c(C)c3c1c2[C@@H](N)CC3 ; retrieve measured EC50.
## Output 2.3
